Target System: Beta-secretase 1 (Homo sapiens, UniProt P56817)
Sequence (P56817 whole entry): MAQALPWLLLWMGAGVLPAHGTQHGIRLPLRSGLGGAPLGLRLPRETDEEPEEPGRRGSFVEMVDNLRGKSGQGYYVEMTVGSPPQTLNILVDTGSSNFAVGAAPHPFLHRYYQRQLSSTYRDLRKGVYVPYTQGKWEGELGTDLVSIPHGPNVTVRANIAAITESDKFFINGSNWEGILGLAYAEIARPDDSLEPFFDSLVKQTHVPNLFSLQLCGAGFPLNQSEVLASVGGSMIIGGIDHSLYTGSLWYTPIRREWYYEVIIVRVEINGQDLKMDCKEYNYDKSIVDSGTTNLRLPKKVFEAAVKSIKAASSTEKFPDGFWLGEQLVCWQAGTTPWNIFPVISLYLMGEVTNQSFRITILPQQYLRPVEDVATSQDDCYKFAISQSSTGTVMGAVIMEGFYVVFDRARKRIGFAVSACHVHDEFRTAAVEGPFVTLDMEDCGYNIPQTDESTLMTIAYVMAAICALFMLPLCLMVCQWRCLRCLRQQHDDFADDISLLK
Method: Inhibition of recombinant human BACE1 using Rh-EVNLDAEFK-Quencher as substrate after 60 mins by FRET assay
Quantity Name: pIC50
// pIC50: -log10(molar conc.)

Can you look up the measured pIC50 of CC(C)=CCC/C(=C/CC/C(C)=C/CCC1(C)C=Cc2cc(O)cc(C)c2O1)C(=O)O (configuration not stated) for me?
5.15

State the recorded pIC50 for this entry: CC(C)=CCC/C(=C/CC/C(C)=C/CC/C(C)=C/Cc1cc(O)cc(C)c1O)C(=O)O [SARGAHYDROQUINOIC ACID]
5.36
